- target under test: cGMP-dependent protein kinase 2 (Homo sapiens);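 note: reported figure is a mean inhibition value against PRKG2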
- details: at 0.1 µM
observed property: inhibition (%)
Response body: numeric value in %, unit text excluded.

Query block: Return inhibition (reported value) for this compound: COC(=O)c1cncc(/C=C/c2c(C)cc(O)cc2C)c1
Result block: 1.54

Query block: Give the value of inhibition reported for the following: Nc1nccc(C#Cc2cncnc2Nc2ccc(OCc3cccc(F)c3)c(Cl)c2)n1
Result block: 1.99

Query block: Provide one value: measured inhibition of CC(C)c1ccc2c(c1)NC(=O)/C2=N/Nc1ccc(S(N)(=O)=O)cc1
Result block: -0.39

Query block: # return recorded inhibition for input O=C1Nc2ccc(-c3cccnc3)cc2C1=Cc1cc(Br)c(O)c(Br)c1
Result block: 2.46

Query block: Determine from records and report inhibition for COc1cccc(-n2ncc3c(N/N=C/c4ccc(C)cc4)ncnc32)c1
Result block: 3.43

Query block: Tell us which inhibition value is on record for FC(F)(F)c1ccc(-c2nn3ncccc3c2-c2ccnc(Nc3ccc4c(c3)OCCO4)n2)cc1
Result block: 3.41

Query block: Provide only the value of recorded inhibition for ON=C1CCc2cc(-c3nc(C4CCNCC4)[nH]c3-c3ccncc3)ccc21
Result block: 0.54

Query block: Give recorded inhibition. COc1cc(/C=N/Nc2ncnc3c2cnn3C(C)C)ccc1O
Result block: 0.71

Query block: # return recorded inhibition for input COc1cc(Nc2nccc(-c3cnn4ncccc34)n2)cc(OC)c1
Result block: 3.45

Query block: Return inhibition (reported value) for this compound: c1ccc(Nc2ncc(-c3ccccc3)o2)cc1
Result block: 3.62

Query block: Determine from records and report inhibition for Oc1cccc(-c2nc(-c3ccccc3)[nH]c2-c2ccncc2)c1
Result block: 1.58
